molecular target: MAGI3_5, Q5TCQ9; assay: holdup assay; design: key: below the threshold = too weak to quantify, mostly under pKd 3.1 to 4; conditions: plain residues with an end cap or a label only (N-terminal biotin on a linker: ttds)
Sequence (Q5TCQ9 847-941): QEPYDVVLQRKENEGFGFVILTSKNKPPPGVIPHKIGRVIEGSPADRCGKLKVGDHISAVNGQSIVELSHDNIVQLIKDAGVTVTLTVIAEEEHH
VALUE KIND: pKd

# BINDER, EXPERIMENTAL RESULT
rows = [
    ("QRQARSETLV [HPV59-E6, Q81964]", 4.62),
    ("RLPKIKETTV [FRMPD4, Q14CM0]", "below the threshold"),
    ("RLQRRRETQV [HPV18-E6, P06463]", "below the threshold"),
    ("SKPTRRETEV [HPV35-E6, P27228]", "below the threshold"),
]
